For each of the compounds below, state its Sirt6 Activity (% activity, 10 μM).
- target-system: Sirt6 (Homo sapiens)
- Construct: purchased CycLex CY-1156V2
- Sequence (Q8N6T7 whole entry): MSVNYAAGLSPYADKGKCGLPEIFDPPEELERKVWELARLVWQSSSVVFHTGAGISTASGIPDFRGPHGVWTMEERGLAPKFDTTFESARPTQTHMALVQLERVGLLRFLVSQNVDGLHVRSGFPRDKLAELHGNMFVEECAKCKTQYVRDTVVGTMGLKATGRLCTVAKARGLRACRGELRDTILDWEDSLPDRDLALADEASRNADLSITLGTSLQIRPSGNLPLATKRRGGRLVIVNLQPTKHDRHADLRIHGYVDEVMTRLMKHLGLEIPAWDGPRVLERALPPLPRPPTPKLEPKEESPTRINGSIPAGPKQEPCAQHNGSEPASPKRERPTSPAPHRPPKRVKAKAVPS
- assay-protocol: Measurement of Sirt6 Activity (CycLex Sirt6 Deacetylase Fluorometric Assay Kit)
- Format: biochemical
- settings: compound at 10 μM; fluorescence relative to the group without compound treatment (positive control group)
Give a bare numeral; the unit % activity is implied.

**Query** Hello, I am looking for reported Sirt6 Activity (% activity, 10 μM) with Sirt6 (Homo sapiens) for O=C(NO)c1cccc(-c2nn(-c3ccc(F)cc3)c(=O)c3ccccc23)c1 . Could you help?
**Result** 162

**Query** Request: Sirt6 Activity (% activity, 10 μM), test system Sirt6 (Homo sapiens), entry CN[C@H]1CCCCN(c2nn(C3CCCCC3)c(=O)c3ccccc23)C1.Cl
**Result** 223.9

**Query** Fill in the recorded Sirt6 Activity (% activity, 10 μM) for this compound, with Sirt6 (Homo sapiens) as test system: CCS(=O)(=O)Nc1cccc(-c2nn(-c3ccc(C(F)(F)F)cc3)c(=O)c3ccccc23)c1
**Result** 104

**Query** Short answer please: Sirt6 Activity (% activity, 10 μM), Sirt6 (Homo sapiens), entry CC(C)(N)c1cccc(-c2nn(-c3ccc(F)cc3F)c(=O)c3ccccc23)c1.Cl
**Result** 255.33

====

For each record, write down the corresponding Sirt6 Activity (% activity, 10 μM).
- target-system: Sirt6 (Homo sapiens)
- Construct: purchased CycLex CY-1156V2
- assay-protocol: Measurement of Sirt6 Activity (CycLex Sirt6 Deacetylase Fluorometric Assay Kit)
- Type: biochemical
- settings: compound at 10 μM; fluorescence relative to the group without compound treatment (positive control group)
// note: answer is a bare numeric in % activity

**Query** May I ask what Sirt6 Activity (% activity, 10 μM) has been recorded for CCS(=O)(=O)Nc1cccc(-c2nn(-c3ccc(F)cc3)c(=O)c3cccc(C)c23)c1 [Example 150] ?
**Result** 104.7

**Query** Field request: Sirt6 Activity (% activity, 10 μM) | item: CNS(=O)(=O)c1cccc(-c2nn(-c3ccc(F)cc3F)c(=O)c3ccc(F)cc23)c1 [Example 121]
**Result** 157

**Query** I would be grateful if you could share the reported Sirt6 Activity (% activity, 10 μM) for CC(C)(C(=O)N1CCOCC1)c1cccc(-c2nn(-c3ccc(F)cc3F)c(=O)c3ccccc23)c1 [Example 179] .
**Result** 221.60

**Query** Given the entry CN(c1cccc(-c2nn(-c3ccc(F)cc3)c(=O)c3ccccc23)c1)S(C)(=O)=O [Example 69] , report its measured Sirt6 Activity (% activity, 10 μM).
**Result** 209

**Query** Given CC(C)/[N+]([O-])=C/c1cccc(-c2nn(-c3ccc(F)cc3F)c(=O)c3ccccc23)c1 [Example 22] , state its recorded Sirt6 Activity (% activity, 10 μM).
**Result** 201

**Query** Param item = O=C(O)C1(c2cccc(-c3nn(-c4ccc(Cl)cc4)c(=O)c4ccccc34)c2)CC1 [Example 195] ; retrieve measured Sirt6 Activity (% activity, 10 μM).
**Result** 287.30

**Query** Quick one: Sirt6 Activity (% activity, 10 μM) of O=C1OCCN1c1cccc(-c2nn(-c3ccc(F)cc3)c(=O)c3ccccc23)c1 [Example 161] ?
**Result** 177

**Query** Data request, read-out Sirt6 Activity (% activity, 10 μM), for CN(C)S(=O)(=O)N(C)c1cccc(-c2nn(-c3ccc(F)cc3)c(=O)c3ccccc23)c1 [Example 75]
**Result** 139

====

For each entry below, report its Sirt6 Activity (% activity, 10 μM) value.
- target-system: Sirt6 (Homo sapiens)
- Construct: purchased CycLex CY-1156V2
- assay-protocol: Measurement of Sirt6 Activity (CycLex Sirt6 Deacetylase Fluorometric Assay Kit)
- Assay type: biochemical
- settings: compound at 10 μM; fluorescence relative to the group without compound treatment (positive control group)
Record the result as number plus unit.

**Query** Request the reported Sirt6 Activity (% activity, 10 μM) associated with CC(C)/[N+]([O-])=C/c1ccc(F)c(-c2nn(-c3ccc(F)cc3)c(=O)c3ccccc23)c1
**Result** 115 % activity

**Query** What value of Sirt6 Activity (% activity, 10 μM) has been reported for the following compound? O=c1c2ccccc2c(-c2cccc(S(=O)(=O)N3CCCC3)c2)nn1-c1ccc(F)cc1F
**Result** 233.90 % activity

**Query** State the recorded Sirt6 Activity (% activity, 10 μM) for this entry: CC(C)(C)/[N+]([O-])=C/c1cccc(-c2nn(-c3ccc(F)c(Cl)c3)c(=O)c3ccccc23)c1
**Result** 176 % activity

**Query** Record request: Sirt6 Activity (% activity, 10 μM) value, item C/[N+]([O-])=C/c1cccc(-c2nn(-c3cccc(F)c3)c(=O)c3ccccc23)c1
**Result** 148 % activity

**Query** Query (compound): Cl.N[C@@H]1CCCCN(c2nn(C3CCCCC3)c(=O)c3ccccc23)C1 ; field requested: Sirt6 Activity (% activity, 10 μM)
**Result** 398.8 % activity

**Query** Endpoint output: Sirt6 Activity (% activity, 10 μM) of CC(C)(C(=O)O)c1cccc(-c2nn(-c3ccc(F)cc3F)c(=O)c3ccccc23)c1 . Value?
**Result** 239.2 % activity

**Query** Look up Sirt6 Activity (% activity, 10 μM): CCNc1cccc(-c2nn(-c3ccc(C(F)(F)F)cc3)c(=O)c3ccccc23)c1
**Result** 102 % activity

**Query** Entry CC(=O)N[C@@H]1CCCCN(c2nn(-c3ccc(F)cc3F)c(=O)c3ccccc23)C1 : reported Sirt6 Activity (% activity, 10 μM) = ?
**Result** 286.60 % activity

**Query** Endpoint output: Sirt6 Activity (% activity, 10 μM) of O=c1c2ccccc2c(-c2ccc(Cl)c([N+](=O)[O-])c2)nn1-c1ccc(F)cc1 . Value?
**Result** 109 % activity

**Query** Which Sirt6 Activity (% activity, 10 μM) value is on record for CC(C)/[N+]([O-])=C/c1cccc(-c2nn(-c3c(F)cccc3F)c(=O)c3ccccc23)c1 ?
**Result** 324 % activity

**Query** Please report the recorded Sirt6 Activity (% activity, 10 μM) for CC(C)/[N+]([O-])=C/c1cccc(-c2nn(-c3ccc(F)c(Cl)c3)c(=O)c3ccccc23)c1 .
**Result** 183 % activity

**Query** Reported Sirt6 Activity (% activity, 10 μM), compound CN(C)S(=O)(=O)c1cccc(-c2nn(-c3ccc(F)cc3F)c(=O)c3ccc(F)cc23)c1 : ____
**Result** 172 % activity

**Query** Please report the recorded Sirt6 Activity (% activity, 10 μM) for CNS(=O)(=O)c1cccc(-c2nn(-c3ccc(F)cc3)c(=O)c3ccccc23)c1 .
**Result** 196 % activity

**Query** Which Sirt6 Activity (% activity, 10 μM) is listed for Cl.N[C@@H]1CCCCN(c2nn(-c3ccc(F)cc3F)c(=O)c3ccccc23)C1 ?
**Result** 277.1 % activity

**Query** Which Sirt6 Activity (% activity, 10 μM) value belongs to CN(C)S(=O)(=O)c1cccc(-c2nn(-c3ccccc3F)c(=O)c3ccccc23)c1 ?
**Result** 153 % activity

**Query** Would you kindly share the measured Sirt6 Activity (% activity, 10 μM) for Nc1cccc(-c2nn(-c3ccc(F)cc3)c(=O)c3ccccc23)c1 ?
**Result** 176 % activity

====

- target-system: Sirt6 (Homo sapiens)
- Construct: purchased CycLex CY-1156V2
- assay-protocol: Measurement of Sirt6 Activity (CycLex Sirt6 Deacetylase Fluorometric Assay Kit)
- Assay type: biochemical
- settings: compound at 10 μM; fluorescence relative to the group without compound treatment (positive control group); 10 µM
measure-name: Sirt6 Activity (% activity, 10 μM)

**Query** Write down the reported Sirt6 Activity (% activity, 10 μM) of O=C(O)C1(C2CCCN(c3nn(-c4ccc(F)cc4F)c(=O)c4ccccc34)C2)CC1 (stereo not shown) [Example 213-2] , test system: Sirt6 (Homo sapiens).
**Result** 102.60 % activity

**Query** Give Sirt6 Activity (% activity, 10 μM) (Sirt6 (Homo sapiens)) of the following compound: CC(C)(C(=O)O)C1CCCN(c2nn(-c3ccc(F)cc3F)c(=O)c3ccccc23)C1 (stereo not shown) [Example 210-2]
**Result** 100.50 % activity

**Query** Query the reported Sirt6 Activity (% activity, 10 μM) for Sirt6 (Homo sapiens); item: CC(C)(C(=O)O)C1CCCN(c2nn(-c3ccc(F)cc3F)c(=O)c3ccccc23)C1 (stereo not shown) [Example 205]
**Result** 105.70 % activity

**Query** // map CC(C)(C(=O)O)C1CCCN(c2nn(-c3ccc(F)cc3F)c(=O)c3ccccc23)C1 (stereo not shown) [Example 210-1] to recorded Sirt6 Activity (% activity, 10 μM) (system: Sirt6 (Homo sapiens))
**Result** 199.00 % activity

The reported measurements were obtained from patent US20220235011A1.
